Reported MFI values are given for each entry in this list.
- system under test: T1, human LILRA2 (human, UniProt Q8N149 24-483)
- T1 construct: whole, on cells; also called hLILRA2
- T1 sequence (Q8N149 24-483): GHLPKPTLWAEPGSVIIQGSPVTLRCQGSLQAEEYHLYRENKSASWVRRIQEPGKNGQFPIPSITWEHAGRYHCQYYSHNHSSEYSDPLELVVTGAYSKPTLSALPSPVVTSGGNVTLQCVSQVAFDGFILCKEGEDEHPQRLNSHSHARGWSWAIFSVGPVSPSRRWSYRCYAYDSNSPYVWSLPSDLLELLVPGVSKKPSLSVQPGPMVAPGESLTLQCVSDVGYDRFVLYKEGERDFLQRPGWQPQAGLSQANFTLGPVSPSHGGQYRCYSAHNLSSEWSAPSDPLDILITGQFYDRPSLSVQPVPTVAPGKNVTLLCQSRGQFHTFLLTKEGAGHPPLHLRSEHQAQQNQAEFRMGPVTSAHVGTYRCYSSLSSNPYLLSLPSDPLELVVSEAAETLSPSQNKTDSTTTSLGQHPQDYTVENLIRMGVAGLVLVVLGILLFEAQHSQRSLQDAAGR
- experiment: FACS, 293F-hLILRA2 cells
The reply should read as a number followed by its unit.

2-H1-D7-E5-D5 (antibody, V domains shown, mouse monoclonal hybridoma antibody) VH: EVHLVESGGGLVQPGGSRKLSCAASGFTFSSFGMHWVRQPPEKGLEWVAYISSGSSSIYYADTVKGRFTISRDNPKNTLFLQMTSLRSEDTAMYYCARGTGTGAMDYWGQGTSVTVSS VL: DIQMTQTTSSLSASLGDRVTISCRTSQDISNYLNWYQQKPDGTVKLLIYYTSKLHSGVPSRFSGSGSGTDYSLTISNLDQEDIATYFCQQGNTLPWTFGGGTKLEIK	20 MFI
27-F11-E10-G10 (antibody, V domains shown, mouse monoclonal hybridoma antibody) VH: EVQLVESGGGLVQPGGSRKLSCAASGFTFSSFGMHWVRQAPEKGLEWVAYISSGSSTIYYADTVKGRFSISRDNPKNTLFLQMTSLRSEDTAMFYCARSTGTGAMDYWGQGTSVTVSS VL: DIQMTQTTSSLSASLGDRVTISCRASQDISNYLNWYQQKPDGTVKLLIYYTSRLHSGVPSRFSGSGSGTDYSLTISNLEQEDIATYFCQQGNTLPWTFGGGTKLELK	17.3 MFI
8-B3-F6-H8 (antibody, V domains shown, mouse monoclonal hybridoma antibody) VH: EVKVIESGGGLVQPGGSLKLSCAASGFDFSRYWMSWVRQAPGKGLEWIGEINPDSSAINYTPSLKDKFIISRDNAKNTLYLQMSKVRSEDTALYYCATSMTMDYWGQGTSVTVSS VL: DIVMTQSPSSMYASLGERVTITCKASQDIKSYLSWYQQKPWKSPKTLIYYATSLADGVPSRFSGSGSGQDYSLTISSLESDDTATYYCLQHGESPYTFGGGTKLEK	19.6 MFI
10-H9-E3-G3 (antibody, V domains shown, mouse monoclonal hybridoma antibody) VH: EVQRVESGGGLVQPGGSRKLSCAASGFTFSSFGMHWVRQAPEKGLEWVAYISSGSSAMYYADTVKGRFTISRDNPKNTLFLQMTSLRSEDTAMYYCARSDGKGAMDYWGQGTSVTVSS VL: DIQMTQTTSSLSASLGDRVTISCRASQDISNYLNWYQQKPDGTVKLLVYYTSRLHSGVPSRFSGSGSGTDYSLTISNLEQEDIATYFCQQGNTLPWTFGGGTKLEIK	19.9 MFI

Now for a further binder.
Entry 42-C8-A12-F3-D11 (antibody, V domains shown, mouse monoclonal hybridoma antibody) VH: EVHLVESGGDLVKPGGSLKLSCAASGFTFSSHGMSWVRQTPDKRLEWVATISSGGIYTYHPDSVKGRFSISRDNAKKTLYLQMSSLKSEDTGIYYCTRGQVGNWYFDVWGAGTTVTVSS VL: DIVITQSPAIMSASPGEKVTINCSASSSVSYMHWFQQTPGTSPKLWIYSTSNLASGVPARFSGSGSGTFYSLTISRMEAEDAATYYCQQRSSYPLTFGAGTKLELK , MFI reported as 28.1 MFI
